Reference source: patent US9302999B2

Test system: rice (Oryza sativa)
Experiment: Test B flooded paddy: rice
Type: in vivo
Settings: Flood; 125 g ai/ha; applied to paddy water at 2-leaf stage; visually evaluated after 13 to 15 days
satisfied means recorded Plant response rating, Rice (0 to 100 scale, 0 is no effect, 100 is complete control) is 20 or above; not satisfied means it is below 20.

smiles_str=CCOCc1nn(-c2ccc(F)cc2)nc1Oc1ccnc(C(F)(F)F)c1 category_label="not satisfied"
smiles_str=CCOc1nn(-c2ccc(F)cc2)nc1C(=O)c1ccnc(C(F)(F)F)c1 category_label="not satisfied"
smiles_str=CCCOc1nn(-c2ccc(C(F)(F)F)cc2)nc1Cc1ccnc(C(F)(F)F)c1 category_label=satisfied
smiles_str=CCCc1nn(-c2ccc(F)cc2F)nc1Oc1ccnc(C(F)(F)F)c1 category_label=satisfied
smiles_str=CCOc1nn(-c2ccc(F)cc2F)nc1Cc1ccnc(C(F)(F)F)c1 category_label=satisfied
smiles_str=CC(C)(C)c1nn(-c2ccc(F)cc2)nc1Cc1ccnc(C(F)(F)F)c1 category_label="not satisfied"
